Data provenance is patent US8969312B2.

# System: amidase
# test: Mouse liver microsomal amidase, isoniazid to isonicotinic acid
# Type: biochemical
# protocol-conditions: 10 uM
quantity-measured: Amidase inhibition (%)
Field format: number, assumed %, no unit text.

IN: Give the measured Amidase inhibition of `O=c1c(-c2ccc(O)cc2)coc2cc(O)ccc12` .
OUT: 1.0

IN: One more compound: `O=c1c(-c2ccc(O)cc2)coc2cc(O[C@@H]3O[C@H](CO)[C@@H](O)[C@H](O)[C@H]3O)ccc12`
OUT: 1.1

IN: Next entry: `CCCCCCCCCCCCO`
OUT: −0.7

IN: Then `O=c1c(O)c(-c2ccc(O)c(O)c2)oc2cc(O)ccc12` ?
OUT: 38.3

IN: // next record `O=c1c(-c2ccc(O)cc2)coc2cc(O)cc(O)c12`
OUT: 1.8

IN: Let us now turn to `COc1ccc([C@@H]2CC(=O)c3c(O)cc(O)cc3O2)cc1O`
OUT: 5.4

IN: Follow-up item: O=C(O)/C=C/c1ccccc1 [trans-Cinnamic acid]
OUT: −1.4

IN: Now consider `O=C(O)c1cc(O)c(O)c(O)c1` and answer again.
OUT: 20.0

IN: Same read-out for `O=c1cc(-c2ccc(O)c(O)c2)oc2cc(O)c([C@@H]3O[C@H](CO)[C@@H](O)[C@H](O)[C@H]3O)c(O)c12` ?
OUT: 3.5

IN: Next compound: `O=c1c(-c2ccc(O)cc2)coc2c([C@@H]3O[C@H](CO)[C@@H](O)[C@H](O)[C@H]3O)c(O)ccc12`
OUT: 33.0

IN: Follow-up entry: `C=CC(=C)CCC=C(C)C`
OUT: 6.6

IN: Moving on to the next compound: `COc1c(O)cc2oc(Oc3ccc(O)cc3)cc(=O)c2c1O`
OUT: 18.2

IN: Now consider `O=c1c(O)c(-c2ccccc2)oc2cc(O)cc(O)c12` and answer again.
OUT: 32.8

IN: Next record, please: `O=C(CCc1ccc(O)cc1)c1c(O)cc(O)cc1O`
OUT: 9.8

IN: And `O=C(/C=C/c1ccc(O)cc1)c1ccc(O)cc1O` ?
OUT: 17.7

IN: Item: `COc1ccc(-c2cc(=O)c3c(O)cc(O)c(-c4cc(-c5cc(=O)c6c(O)cc(OC)cc6o5)ccc4OC)c3o2)cc1`
OUT: 20.7

IN: Now consider `O=c1cc(-c2ccccc2)oc2c1ccc1ccccc12` and answer again.
OUT: 19.3

IN: Now consider `CC12CCC(CC1)C(C)(C)O2` .
OUT: −4.7

IN: Entry `O=c1cc(-c2ccc(O)c(O)c2)oc2cc(O)cc(O)c12` please
OUT: 23.0
